# Percent Similarity Score (KD on hN) annotations
- system_tested: T1, human NGF (human, UniProt P01138 122-241)
- T1 construct: also called human Nerve Growth Factor; hN
- T1 chain: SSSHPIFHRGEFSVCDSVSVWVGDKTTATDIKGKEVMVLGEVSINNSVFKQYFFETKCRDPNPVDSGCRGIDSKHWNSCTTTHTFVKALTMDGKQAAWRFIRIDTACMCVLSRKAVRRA
- protocol_summary: SPR (Biacore T200), 100 nM mAb on NGF chip, similarity to parent mAb

{"binder": "can9L12VL_T94A (antibody, V domains shown) VH: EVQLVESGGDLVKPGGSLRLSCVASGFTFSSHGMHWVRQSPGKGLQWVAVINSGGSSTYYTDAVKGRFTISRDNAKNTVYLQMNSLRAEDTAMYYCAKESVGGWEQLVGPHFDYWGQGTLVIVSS VL: QSVLTQPTSVSGSLGQRVTISCSGSTNNIGILGASWYQLFPGKAPKLLVYGNGNRPSGVPDRFSGADSGDSVTLTITGLQAEDEADYYCQSFDATLGAHVFGGGTHLTVL", "Percent Similarity Score (KD on hN) / %": 52.5}
{"binder": "can9L12VL_G33A (antibody, V domains shown) VH: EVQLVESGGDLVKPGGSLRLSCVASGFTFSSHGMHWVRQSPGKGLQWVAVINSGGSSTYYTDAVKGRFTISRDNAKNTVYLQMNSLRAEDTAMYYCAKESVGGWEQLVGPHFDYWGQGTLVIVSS VL: QSVLTQPTSVSGSLGQRVTISCSGSTNNIGILAASWYQLFPGKAPKLLVYGNGNRPSGVPDRFSGADSGDSVTLTITGLQAEDEADYYCQSFDTTLGAHVFGGGTHLTVL", "Percent Similarity Score (KD on hN) / %": 2.3}
